- ASSAY SYSTEM: T1, Recombinant Human DLL4 (delta-like protein 4) (human, UniProt Q9NR61 27-524)
- T1 construct: Bought recombinant human DLL4 (R&D Systems Cat#1506-D4/CF); also called rHuman DLL4
- MEASUREMENT PROTOCOL: ECL (MSD) multispot binding assay, antigen spotted on plate, Fab in solution;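 further: purified Fab incubated 1 h at 20 °C, detected via TAG-labelled antibody electrochemiluminescence, antigen spot compared with the blank in the same well, ratio at least 4 counted as hit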
I'd appreciate it if you could supply Signal/Blank values for the items below.

BINDER	RECORDED RESULT
Fab VH1-46_IGHD6-6*01_IGHJ1*01 S102A/S103P/S104F/H111F (APFF) & L6_IGKJ1*01 S31Y (Fab, V domains shown, Fab made in E. coli; The constant parts (CH1 with His6 and Flag tags from plasmid A, kappa CL from plasmid C) are not added here; also called APFF & S31Y) VH: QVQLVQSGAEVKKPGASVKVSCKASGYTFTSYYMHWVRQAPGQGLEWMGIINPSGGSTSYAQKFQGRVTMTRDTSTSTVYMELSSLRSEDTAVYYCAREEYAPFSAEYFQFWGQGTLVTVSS VL: EIVLTQSPATLSLSPGERATLSCRASQSVSYYLAWYQQKPGQAPRLLIYDASNRATGIPARFSGSGSGTDFTLTISSLEPEDFAVYYCQQRSNWPPWTFGQGTKVEIKR	662
Fab VH1-46_IGHD6-6*01_IGHJ1*01 S102A/S103P/S104F/H111F (APFF) & L6_IGKJ1*01 S31T (Fab, V domains shown, Fab made in E. coli; The constant parts (CH1 with His6 and Flag tags from plasmid A, kappa CL from plasmid C) are not added here; also called APFF & S31T) VH: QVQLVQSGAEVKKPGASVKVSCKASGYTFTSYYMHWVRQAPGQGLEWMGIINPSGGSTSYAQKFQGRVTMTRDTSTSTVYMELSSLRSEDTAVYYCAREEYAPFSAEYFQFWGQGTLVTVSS VL: EIVLTQSPATLSLSPGERATLSCRASQSVSTYLAWYQQKPGQAPRLLIYDASNRATGIPARFSGSGSGTDFTLTISSLEPEDFAVYYCQQRSNWPPWTFGQGTKVEIKR	576

Let's switch to this binder now.
Retrieve Signal/Blank measured for Fab VH1-46_IGHD6-6*01_IGHJ1*01 S102A/S103P/S104F/H111F (APFF) & L6_IGKJ1*01 S31H (Fab, V domains shown, Fab made in E. coli; The constant parts (CH1 with His6 and Flag tags from plasmid A, kappa CL from plasmid C) are not added here; also called APFF & S31H) VH: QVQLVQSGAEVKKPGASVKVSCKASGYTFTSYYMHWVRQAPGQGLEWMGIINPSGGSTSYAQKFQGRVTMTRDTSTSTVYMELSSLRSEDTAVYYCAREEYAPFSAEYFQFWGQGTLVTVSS VL: EIVLTQSPATLSLSPGERATLSCRASQSVSHYLAWYQQKPGQAPRLLIYDASNRATGIPARFSGSGSGTDFTLTISSLEPEDFAVYYCQQRSNWPPWTFGQGTKVEIKR and print it.
838

Every entry's value here was drawn from patent US20120316071A1.
